tested on: 266 human PDZ domains (PDZome); test: Holdup assay (chromatographic retention, PDZome-binding profile, BI); design: key: binding intensity: 0.00 = no binding, 1.00 = maximal binding; conditions: PDZ domain PDZD8-1
*1 amine or outer side, *2 acyl side, *3 side chain or, on linkers, in order; H or OH if unused. Where a SMILES comes first, the peptide text is derived from it. The star is where a group is joined. X1 = O=C(CCCC[C@@H]1SC[C@@H]2NC(=O)N[C@@H]21)NCCCOCCOCCOCCCN*; Suc = O=C(CCC(=O)[*:2])[*:1]
Collected BI values appear next to each entry.
Simply state the number, no unit and no words.

// known answers, use as guide
{"columns": ["COMPOUND", "TARGET", "ENDPOINT", "OBSERVED_VALUE"],
 "data": [
  ["CC[C@H](C)[C@H](NC(=O)[C@H](CCC(N)=O)NC(=O)[C@@H](NC(=O)[C@H](Cc1c[nH]cn1)NC(=O)[C@H](CCC(N)=O)NC(=O)[C@H](CC(=O)O)NC(=O)[C@H](CCC(=O)O)NC(=O)[C@H](CC(=O)O)NC(=O)CCC(=O)NCCCOCCOCCOCCCNC(=O)CCCC[C@@H]1SC[C@@H]2NC(=O)N[C@@H]21)[C@@H](C)O)C(=O)N[C@H](C(=O)N[C@@H](CCCCN)C(=O)N[C@H](C(=O)O)C(C)C)[C@@H](C)O [PTEN_11]", "266 human PDZ domains (PDZome)", "BI", -0.04],
  ["CC[C@H](C)[C@H](NC(=O)[C@H](CCC(N)=O)NC(=O)[C@@H](NC(=O)[C@H](Cc1c[nH]cn1)NC(=O)[C@H](CCC(N)=O)NC(=O)[C@H](CC(=O)O)NC(=O)[C@H](CCC(=O)O)NC(=O)[C@H](CC(=O)O)NC(=O)CCC(=O)NCCCOCCOCCOCCCNC(=O)CCCC[C@@H]1SC[C@@H]2NC(=O)N[C@@H]21)[C@@H](C)O)C(=O)N[C@H](C(=O)N[C@@H](CCCNC(=N)N)C(=O)N[C@H](C(=O)O)C(C)C)[C@@H](C)O [PTEN_KR] ({X1-Suc}-DEDQHTQITRV-OH)", "266 human PDZ domains (PDZome)", "BI", 0.006]
]}

# next compound below
State the recorded BI for this entry: CC[C@H](C)[C@H](NC(=O)[C@H](CCC(N)=O)NC(=O)[C@@H](NC(=O)[C@H](Cc1c[nH]cn1)NC(=O)[C@H](CCC(N)=O)NC(=O)[C@H](CC(=O)O)NC(=O)[C@H](CCC(=O)O)NC(=O)[C@H](CC(=O)O)NC(=O)CCC(=O)NCCCOCCOCCOCCCNC(=O)CCCC[C@@H]1SC[C@@H]2NC(=O)N[C@@H]21)[C@@H](C)O)C(=O)N[C@H](C(=O)N[C@@H](CCCCNC(C)=O)C(=O)N[C@H](C(=O)O)C(C)C)[C@@H](C)O [PTEN_Ac]
-0.202
